system: MiaPaCa.2 (human pancreas); assay: MTT cytotoxicity assay, MiaPaCa.2 cells; format: cell-based; details: human, 48 hours, 100 nM
Starred links: 1 amine or outer side, 2 acyl side, 3 side chain; linkers in the order of their positions; H or OH if unused. Non-standard residues stand in square brackets, D forms with d. Residues, ends and D or L forms follow the SMILES beside them. X2 = O=C([C@@H]1CC[C@H](CN[*:1])O1)[*:2]
Quick list: Percent Cytotoxicity per entry.

molecule	Percent Cytotoxicity (%)
CSCC[C@H](NC(=O)[C@@H](N)CC(C)C)C(=O)N[C@@H](Cc1ccc(O)cc1)C(=O)NC[C@H]1CC[C@@H](C(=O)N[C@@H](Cc2ccc(O)cc2)C(=O)N[C@@H](CC(C)C)C(=O)N[C@@H](CCCCN)C(=O)O)O1 [SEQ ID NO: 13, Leu-Met-Tyr-Saa4-Tyr-Leu-Lys] (H-LMY[X2]YLK-OH)	8.0
CSCC[C@H](NC(=O)[C@@H](N)CC(C)C)C(=O)N[C@@H](Cc1ccc(O)cc1)C(=O)NC[C@H]1O[C@H](C(=O)N[C@H](C(=O)N[C@@H](Cc2ccc(O)cc2)C(=O)N[C@@H](CC(C)C)C(=O)N[C@@H](CCCCN)C(=O)O)[C@@H](C)O)[C@@H](OCc2ccccc2)[C@@H]1OCc1ccccc1	17.9
CSCC[C@H](N)C(=O)NC[C@H]1CC[C@@H](C(=O)N[C@@H](Cc2ccc(O)cc2)C(=O)N[C@@H](CC(C)C)C(=O)O)O1	17.0
